Would you mind telling me the reported koff of each entry?
- test_system: T1, recombinant human Siglec-15-his protein (Bonopusbio) (human, UniProt Q6ZMC9 20-263)
- T1 construct: Bought (CW37-50 ug in the ELISA; the SPR paragraph prints CW70-50 ug); whole entry named; also called recombinant human Siglec-15 protein
- T1 sequence: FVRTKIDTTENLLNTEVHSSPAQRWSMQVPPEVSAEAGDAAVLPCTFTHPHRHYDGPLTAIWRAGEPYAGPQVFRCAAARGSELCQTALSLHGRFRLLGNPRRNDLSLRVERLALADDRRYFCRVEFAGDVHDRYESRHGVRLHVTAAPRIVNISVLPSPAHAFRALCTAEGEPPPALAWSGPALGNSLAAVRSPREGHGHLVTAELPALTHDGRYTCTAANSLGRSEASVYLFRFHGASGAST
- protocol_summary: SPR (Biacore T200), antibody on CM5 chip, Siglec-15-his as analyte
Record the result as a number with its unit.

// known answers, use as guide
S15B1-VH4 + VL2 (antibody, V domains shown, Humanized S15B1; also called humanized S15B1 VH4+VL2; huS15B1) VH: QVQLVQSGAEVKKPGASVKVSCKASGYAFSSSWMNWVKQAPGQGLEWIGRIYPGHGETNYNGKFKDRATMTADKSTSTVYMELSSLRSEDTAVYFCARVDNSDPYYFDYWGQGTTVTVSS VL: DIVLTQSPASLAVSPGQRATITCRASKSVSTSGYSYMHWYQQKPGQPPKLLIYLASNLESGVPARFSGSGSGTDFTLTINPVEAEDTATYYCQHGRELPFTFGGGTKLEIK : 0.000234 s⁻¹
S15B1-VH1 + VL2 (antibody, V domains shown, Humanized S15B1; also called humanized S15B1 VH1+VL2; huS15B1) VH: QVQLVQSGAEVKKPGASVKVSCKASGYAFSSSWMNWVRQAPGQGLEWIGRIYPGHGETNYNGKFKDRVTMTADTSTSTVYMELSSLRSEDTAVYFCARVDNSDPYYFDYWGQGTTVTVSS VL: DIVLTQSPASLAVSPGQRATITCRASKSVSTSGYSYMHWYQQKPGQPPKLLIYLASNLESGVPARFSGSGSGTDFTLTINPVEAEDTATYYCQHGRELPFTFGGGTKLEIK : 0.000563 s⁻¹
S15B1 (antibody, V domains shown, Mouse hybridoma monoclonal antibody ('parental mouse S15B1'); also called clone S15B1; S15B1-VH + VL (Parental)) VH: QVQLQQSGPELVKPGASVKISCKASGYAFSSSWMNWVKQRPGKGLEWIGRIYPGHGETNYNGKFKDKATVTADKSSSTTYMQLSSLTSEDSAVYFCARVDNSDPYYFDYWGQGTTLTVSS VL: DIVLTQSPASLAVSLGQRATISCRASKSVSTSGYSYMHWYQQKPGQPPKLLIYLASNLESGVPARFSGSGSGTDFTLNIHPVEEEDAATYYCQHGRELPFTFGSGTKLEIK : 0.000233 s⁻¹
S15B1-VH3 + VL1 (antibody, V domains shown, Humanized S15B1; also called humanized S15B1 VH3+VL1; huS15B1) VH: QVQLVQSGAEVKKPGASVKVSCKASGYAFSSSWMNWVKQAPGQGLEWIGRIYPGHGETNYNGKFKDRATMTADTSTSTVYMELSSLRSEDTAVYFCARVDNSDPYYFDYWGQGTTVTVSS VL: DIVLTQSPASLAVSPGQRATITCRASKSVSTSGYSYMHWYQQKPGQPPKLLIYLASNLESGVPARFSGSGSGTDFTLTINPVEAEDTANYYCQHGRELPFTFGGGTKLEIK : 0.000257 s⁻¹
S15B1-VH2 + VL2 (antibody, V domains shown, Humanized S15B1; also called humanized S15B1 VH2+VL2; huS15B1) VH: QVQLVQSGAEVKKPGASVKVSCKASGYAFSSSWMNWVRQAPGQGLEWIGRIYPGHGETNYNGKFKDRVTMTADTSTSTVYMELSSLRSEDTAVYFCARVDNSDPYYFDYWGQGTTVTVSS VL: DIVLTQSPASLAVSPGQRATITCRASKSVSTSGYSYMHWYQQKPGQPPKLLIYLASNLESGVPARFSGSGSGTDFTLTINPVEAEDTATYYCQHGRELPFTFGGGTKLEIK : 0.000326 s⁻¹

Would you mind giving koff for every binder in the list below?
1. S15B1-VH1 + VL1 (antibody, V domains shown, Humanized S15B1; also called humanized S15B1 VH1+VL1; huS15B1) VH: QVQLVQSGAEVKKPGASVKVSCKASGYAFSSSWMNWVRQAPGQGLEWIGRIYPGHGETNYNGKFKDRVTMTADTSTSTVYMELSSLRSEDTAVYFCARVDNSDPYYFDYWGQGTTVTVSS VL: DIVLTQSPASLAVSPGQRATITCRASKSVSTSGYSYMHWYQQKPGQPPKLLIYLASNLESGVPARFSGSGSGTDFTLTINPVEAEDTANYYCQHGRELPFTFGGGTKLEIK
2. S15B1-VH4 + VL1 (antibody, V domains shown, Humanized S15B1; also called humanized S15B1 VH4+VL1; huS15B1) VH: QVQLVQSGAEVKKPGASVKVSCKASGYAFSSSWMNWVKQAPGQGLEWIGRIYPGHGETNYNGKFKDRATMTADKSTSTVYMELSSLRSEDTAVYFCARVDNSDPYYFDYWGQGTTVTVSS VL: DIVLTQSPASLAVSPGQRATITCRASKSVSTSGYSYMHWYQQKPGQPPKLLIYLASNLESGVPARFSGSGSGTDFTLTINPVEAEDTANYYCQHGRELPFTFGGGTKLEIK
3. S15B1-VH2 + VL1 (antibody, V domains shown, Humanized S15B1; also called humanized S15B1 VH2+VL1; huS15B1) VH: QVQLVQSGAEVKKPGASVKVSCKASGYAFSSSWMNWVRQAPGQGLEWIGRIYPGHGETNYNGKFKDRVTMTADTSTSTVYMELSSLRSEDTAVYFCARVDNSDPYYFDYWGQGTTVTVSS VL: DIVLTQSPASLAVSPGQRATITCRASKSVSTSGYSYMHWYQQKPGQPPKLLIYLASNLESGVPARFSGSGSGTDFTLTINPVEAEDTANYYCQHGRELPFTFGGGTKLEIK
4. S15B1-VH3 + VL2 (antibody, V domains shown, Humanized S15B1; also called humanized S15B1 VH3+VL2; huS15B1) VH: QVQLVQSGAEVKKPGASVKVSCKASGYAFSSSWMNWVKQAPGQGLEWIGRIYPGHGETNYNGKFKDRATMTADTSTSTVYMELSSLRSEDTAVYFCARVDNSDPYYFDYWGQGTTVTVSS VL: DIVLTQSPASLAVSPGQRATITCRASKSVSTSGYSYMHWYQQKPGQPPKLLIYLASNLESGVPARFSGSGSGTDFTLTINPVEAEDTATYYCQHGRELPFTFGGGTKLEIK

Result:
["0.000455 s⁻¹", "0.000385 s⁻¹", "0.000473 s⁻¹", "0.000293 s⁻¹"]
